SYSTEM TESTED: ~100 representative kinases (Homo sapiens, UniProt Q13554)
Construct: Recombinant protein kinase domains with a concentration of 2 μM
Sequence (Q13554 whole entry, the tested form may be a part): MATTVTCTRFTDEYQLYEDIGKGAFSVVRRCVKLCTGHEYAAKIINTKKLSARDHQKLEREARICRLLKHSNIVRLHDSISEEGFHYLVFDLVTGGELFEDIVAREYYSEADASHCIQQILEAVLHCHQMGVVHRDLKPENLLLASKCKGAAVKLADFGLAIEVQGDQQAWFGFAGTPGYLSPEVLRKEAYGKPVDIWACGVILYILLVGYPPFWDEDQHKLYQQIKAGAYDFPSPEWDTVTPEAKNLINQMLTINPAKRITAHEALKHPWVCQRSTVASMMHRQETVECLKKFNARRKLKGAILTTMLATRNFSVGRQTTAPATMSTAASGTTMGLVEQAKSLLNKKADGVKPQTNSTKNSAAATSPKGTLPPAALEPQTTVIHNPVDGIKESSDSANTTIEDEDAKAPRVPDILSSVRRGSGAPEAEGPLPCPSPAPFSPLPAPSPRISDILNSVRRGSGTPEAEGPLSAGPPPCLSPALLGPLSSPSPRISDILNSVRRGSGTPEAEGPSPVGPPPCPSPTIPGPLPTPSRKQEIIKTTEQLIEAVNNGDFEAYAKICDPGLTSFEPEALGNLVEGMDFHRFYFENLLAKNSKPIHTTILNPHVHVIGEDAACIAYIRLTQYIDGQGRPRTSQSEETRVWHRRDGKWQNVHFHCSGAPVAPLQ
RUN DESCRIPTION: DSF 100 kinase selectivity screen;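 note: compound tested at 20 µM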
Format: binding
CONDITION PARAMETERS: Protein CAMK2B; average of three replicates
Hi! Just check whether dTm is below 1 K. Below gives fulfilled, equal or above gives not fulfilled.

In [3]: df
Out[3]:
                                    molecule    class_label
 0  COc1cc(NC(=O)C2(C(=O)Nc3cccc(-c4c[nH]c5ncnc(N6CCOCC6)c45)c3)CC2)ccc1F  not fulfilled
 1  CC(C)(C)c1cccc(NC(=O)C2(C(=O)Nc3cccc(-c4c[nH]c5ncnc(N6CCOCC6)c45)c3)CC2)c1  not fulfilled
 2  Cc1ccc(-n2nc(C(C)(C)C)cc2NC(=O)Nc2cccc(-c3c[nH]c4ncnc(N5CCOCC5)c34)c2)cc1      fulfilled
 3  CC(=O)N1CCN(c2nc(Cl)nc3[nH]cc(-c4cccc(NC(=O)Nc5cc(C(C)(C)C)nn5-c5ccc(C)cc5)c4)c23)CC1      fulfilled
 4  O=C(Nc1cccc(-c2c[nH]c3ncnc(N4CCOCC4)c23)c1)C1(C(=O)Nc2ccc(F)c(Br)c2F)CC1  not fulfilled
 5  COc1ccc(NC(=O)C2(C(=O)Nc3cccc(-c4c[nH]c5ncnc(N6CCOCC6)c45)c3)CC2)cc1      fulfilled
 6  Cc1cc(NC(=O)C2(C(=O)Nc3ccc(F)cc3)CC2)cc(-c2c[nH]c3ncnc(N4CCOCC4)c23)c1  not fulfilled
 7  O=C(Nc1cccc(-c2c[nH]c3ncnc(N4CCOCC4)c23)c1)C1(C(=O)Nc2cc(Br)c(F)cc2F)CC1  not fulfilled
 8  COc1cc(S(C)(=O)=O)ccc1Nc1nc(N(C)C)c2c(Cl)c[nH]c2n1      fulfilled
 9  CC(C)(C)c1cc(NC(=O)Nc2cccc(-c3c[nH]c4ncnc(N5CCOCC5)c34)c2)n(-c2ccc3ncccc3c2)n1  not fulfilled
10  Cc1ccc(NC(=O)C2(C(=O)Nc3cccc(-c4c[nH]c5ncnc(N6CCOCC6)c45)c3)CC2)cc1      fulfilled
11  CCNc1nc(Nc2cc(F)c(C(=O)N3CCOCC3)cc2OC)ncc1C(F)(F)F      fulfilled
12  O=C(Nc1cccc(-c2c[nH]c3ncnc(N4CCOCC4)c23)c1)c1cccn(-c2ccc(F)cc2)c1=O      fulfilled
13  COc1cc2c(Oc3ccc(NC(=O)C4(C(=O)Nc5ccc(F)cc5)CC4)cc3F)ccnc2cc1OCCCN1CCOCC1 [Foretinib, reference compound]      fulfilled
14  CCc1ccc(NC(=O)C2(C(=O)Nc3cccc(-c4c[nH]c5ncnc(N6CCOCC6)c45)c3)CC2)cc1  not fulfilled
15  Cc1cc(NC(=O)C2(C(=O)Nc3cccc(-c4c[nH]c5ncnc(N6CCOCC6)c45)c3)CC2)ccc1F  not fulfilled
16  C[C@@H]1CN(c2cc(-c3n[nH]c4ccc(OC5(C)CC5)cc34)ncn2)C[C@H](C)O1  not fulfilled
17  Cc1cc(F)ccc1NC(=O)C1(C(=O)Nc2cccc(-c3c[nH]c4ncnc(N5CCOCC5)c34)c2)CC1      fulfilled
18  O=C(Nc1cccc(-c2c[nH]c3ncnc(N4CCOCC4)c23)c1)C1(C(=O)Nc2ccc(F)c(Cl)c2)CC1  not fulfilled
19  Cc1ccc(C(=O)Nc2ccc(CN3CCN(C)CC3)c(C(F)(F)F)c2)cc1C#Cc1c[nH]c2ncnc(N3CCOCC3)c12      fulfilled
20  COc1cc(C(=O)N2CCOCC2)c(F)cc1Nc1nc(N(C)C)c2c(Cl)c[nH]c2n1  not fulfilled
21  CCSc1nc(NC)c2c(-c3cccc(NC(=O)Nc4cc(C(C)(C)C)nn4-c4ccc(C)cc4)c3)c[nH]c2n1      fulfilled
22  O=C(Nc1ccc(F)cc1)C1(C(=O)Nc2cccc(-c3c[nH]c4ncnc(N5CCOCC5)c34)c2)CC1      fulfilled

----------
SYSTEM TESTED: ~100 representative kinases (Homo sapiens, UniProt Q99986)
Construct: Recombinant protein kinase domains with a concentration of 2 μM
Sequence (Q99986 whole entry, the tested form may be a part): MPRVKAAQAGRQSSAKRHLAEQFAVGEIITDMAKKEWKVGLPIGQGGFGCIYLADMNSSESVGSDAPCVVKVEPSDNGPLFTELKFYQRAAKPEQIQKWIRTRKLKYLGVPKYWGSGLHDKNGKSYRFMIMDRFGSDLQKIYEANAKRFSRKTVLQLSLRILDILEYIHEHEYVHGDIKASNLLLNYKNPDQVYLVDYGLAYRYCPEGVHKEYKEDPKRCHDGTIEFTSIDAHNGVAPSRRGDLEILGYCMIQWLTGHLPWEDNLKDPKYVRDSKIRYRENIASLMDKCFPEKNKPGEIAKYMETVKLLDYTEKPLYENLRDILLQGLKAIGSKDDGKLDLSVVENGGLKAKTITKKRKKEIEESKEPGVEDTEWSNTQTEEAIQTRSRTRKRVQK
RUN DESCRIPTION: DSF 100 kinase selectivity screen;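 note: compound tested at 20 µM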
Format: binding
CONDITION PARAMETERS: Protein VRK1; DSF; average of three replicates
Method: Recombinant protein kinase domains with a concentration of 2 μM were mixed with a 20 μM compound solution in dimethyl sulfoxide (DMSO), 20 mM Hepes (pH 7.5), and 500 mM NaCl. SYPRO Orange (5000×, Invitrogen) was added as a fluorescence probe (1μl/ml). Subsequently, temperature-dependent protein unfolding profiles were measured using the QuantStudio 5 realtime PCR machine (Thermo Fisher Scientific, Waltham, MA, USA). […] The temperature was raised with a step rate of 3°C/min. […]
QUANTITY NAME: dTm (K)

>>> df
                                   compound  unit_text  measurement
0  COc1cc(C(=O)N2CCOCC2)c(F)cc1Nc1nc(N(C)C)c2c(Cl)c[nH]c2n1          K        -1.69
1  Cc1cc(NC(=O)C2(C(=O)Nc3cccc(-c4c[nH]c5ncnc(N6CCOCC6)c45)c3)CC2)ccc1F          K         1.43
2  CNC(=O)c1cc(Oc2ccc(NC(=O)Nc3cc(C(C)(C)C)nn3-c3ccc4ncccc4c3)c(F)c2)ccn1 [Rebastinib, reference compound]          K         0.52
3  CC(C)(C)c1cccc(NC(=O)C2(C(=O)Nc3cccc(-c4c[nH]c5ncnc(N6CCOCC6)c45)c3)CC2)c1          K         0.81

----------
List of dTm values.
SYSTEM TESTED: ~100 representative kinases (Homo sapiens)
Construct: Recombinant protein kinase domains with a concentration of 2 μM
RUN DESCRIPTION: DSF 100 kinase selectivity screen;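 note: compound tested at 20 µM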
Type: binding
CONDITION PARAMETERS: Protein VRK1; DSF; average of three replicates
QUANTITY NAME: dTm (K)

                                  mol_smiles                             system_tested  quantity_name  unit_text  measurement
 0  Cc1cc(F)ccc1NC(=O)C1(C(=O)Nc2cccc(-c3c[nH]c4ncnc(N5CCOCC5)c34)c2)CC1  ~100 representative kinases (Homo sapiens)            dTm          K         0.44
 1  CC(=O)N1CCN(c2nc(Cl)nc3[nH]cc(-c4cccc(NC(=O)Nc5cc(C(C)(C)C)nn5-c5ccc(C)cc5)c4)c23)CC1  ~100 representative kinases (Homo sapiens)            dTm          K        -1.18
 2  O=C(Nc1cccc(-c2c[nH]c3ncnc(N4CCOCC4)c23)c1)C1(C(=O)Nc2ccc(F)c(Cl)c2)CC1  ~100 representative kinases (Homo sapiens)            dTm          K         1.71
 3  Cc1cc(NC(=O)C2(C(=O)Nc3ccc(F)cc3)CC2)cc(-c2c[nH]c3ncnc(N4CCOCC4)c23)c1  ~100 representative kinases (Homo sapiens)            dTm          K         0.70
 4  Cc1ccc(NC(=O)C2(C(=O)Nc3cccc(-c4c[nH]c5ncnc(N6CCOCC6)c45)c3)CC2)cc1  ~100 representative kinases (Homo sapiens)            dTm          K         0.91
 5  O=C(Nc1cccc(-c2c[nH]c3ncnc(N4CCOCC4)c23)c1)C1(C(=O)Nc2ccc(F)c(F)c2)CC1  ~100 representative kinases (Homo sapiens)            dTm          K         1.14
 6  Cc1ccc(-n2nc(C(C)(C)C)cc2NC(=O)Nc2cccc(-c3c[nH]c4ncnc(N5CCOCC5)c34)c2)cc1  ~100 representative kinases (Homo sapiens)            dTm          K        -0.55
 7  COc1cc(NC(=O)C2(C(=O)Nc3cccc(-c4c[nH]c5ncnc(N6CCOCC6)c45)c3)CC2)ccc1F  ~100 representative kinases (Homo sapiens)            dTm          K         0.93
 8  O=C(Nc1cccc(-c2c[nH]c3ncnc(N4CCOCC4)c23)c1)C1(C(=O)Nc2ccc(F)c(Br)c2)CC1  ~100 representative kinases (Homo sapiens)            dTm          K         1.65
 9  O=C(Nc1cc(F)cc(Br)c1)C1(C(=O)Nc2cccc(-c3c[nH]c4ncnc(N5CCOCC5)c34)c2)CC1  ~100 representative kinases (Homo sapiens)            dTm          K         1.05
10  Cc1ccc(C(=O)Nc2ccc(CN3CCN(C)CC3)c(C(F)(F)F)c2)cc1C#Cc1c[nH]c2ncnc(N3CCOCC3)c12  ~100 representative kinases (Homo sapiens)            dTm          K      -0.0464
11  O=C(Nc1cccc(-c2c[nH]c3ncnc(N4CCOCC4)c23)c1)C1(C(=O)Nc2ccc(F)cc2F)CC1  ~100 representative kinases (Homo sapiens)            dTm          K         0.51
